Tested on: Plasmodium falciparum
assay: Antiplasmodial activity against chloroquine-resistant Plasmodium falciparum W2 after 48 hrs by YOYO-1 dye-based flow cytometry
Format: functional, organism-based
reported_conditions: W2, 48 h
pIC50: −log10 of the molar value.
So basically: pIC50 at 6 or higher? That is yes. Lower than 6? That is no.

# compound, assigned_label
data = [
    ("COc1ccc(C2CC(c3ccc(OCc4cn(CCCNc5ccnc6cc(Cl)ccc56)nn4)c(OC)c3)=NN2C(C)=O)cc1OC (stereo not given)", "no"),
]

We next turn to a different compound, shown below.
[in] Dear colleague, could you confirm whether COc1ccc(/C=C/C(=O)c2ccc(OCc3cn(CCNc4ccnc5cc(Cl)ccc45)nn3)cc2)cc1OC has pIC50 at or above 6?
[out] yes
